Reference for the values: paper PMC7613998

Molecular target: VPS34 complex II (Homo sapiens, UniProt Q8NEB9)
Construct: gene PIK3C3
Sequence (Q8NEB9 whole entry): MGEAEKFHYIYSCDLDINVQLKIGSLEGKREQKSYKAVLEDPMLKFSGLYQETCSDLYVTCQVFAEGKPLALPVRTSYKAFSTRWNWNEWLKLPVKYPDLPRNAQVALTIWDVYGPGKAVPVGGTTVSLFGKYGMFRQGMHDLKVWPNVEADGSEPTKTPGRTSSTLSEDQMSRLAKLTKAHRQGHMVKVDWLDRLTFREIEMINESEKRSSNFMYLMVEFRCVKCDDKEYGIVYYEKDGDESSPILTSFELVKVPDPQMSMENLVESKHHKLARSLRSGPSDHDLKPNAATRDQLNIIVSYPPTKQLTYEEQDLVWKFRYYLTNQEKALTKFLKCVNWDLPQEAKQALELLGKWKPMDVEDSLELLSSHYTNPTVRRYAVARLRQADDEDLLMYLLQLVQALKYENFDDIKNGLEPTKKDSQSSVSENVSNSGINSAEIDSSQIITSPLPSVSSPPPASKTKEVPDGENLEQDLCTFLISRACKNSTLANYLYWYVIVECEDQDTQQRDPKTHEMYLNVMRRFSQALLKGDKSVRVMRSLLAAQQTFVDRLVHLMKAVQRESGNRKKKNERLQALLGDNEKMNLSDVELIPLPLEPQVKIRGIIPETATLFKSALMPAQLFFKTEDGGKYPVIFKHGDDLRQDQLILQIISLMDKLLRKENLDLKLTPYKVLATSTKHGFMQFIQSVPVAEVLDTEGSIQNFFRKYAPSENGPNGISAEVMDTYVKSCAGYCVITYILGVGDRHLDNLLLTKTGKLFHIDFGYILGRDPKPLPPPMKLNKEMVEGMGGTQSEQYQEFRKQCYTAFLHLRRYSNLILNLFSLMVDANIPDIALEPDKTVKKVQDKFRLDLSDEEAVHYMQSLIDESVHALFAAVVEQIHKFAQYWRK
Sequence (Q14457 whole entry partner): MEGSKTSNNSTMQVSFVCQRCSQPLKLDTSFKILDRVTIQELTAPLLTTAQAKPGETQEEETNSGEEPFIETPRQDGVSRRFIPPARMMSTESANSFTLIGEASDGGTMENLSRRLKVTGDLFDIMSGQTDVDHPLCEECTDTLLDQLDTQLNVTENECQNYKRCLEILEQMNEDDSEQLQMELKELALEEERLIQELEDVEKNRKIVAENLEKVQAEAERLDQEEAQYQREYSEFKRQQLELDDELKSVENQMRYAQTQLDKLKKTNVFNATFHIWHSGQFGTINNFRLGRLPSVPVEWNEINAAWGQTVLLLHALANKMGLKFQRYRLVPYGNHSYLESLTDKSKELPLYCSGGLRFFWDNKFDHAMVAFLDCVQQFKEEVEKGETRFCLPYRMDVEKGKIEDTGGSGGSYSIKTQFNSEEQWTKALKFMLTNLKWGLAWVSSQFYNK
Sequence (Q99570 whole entry partner): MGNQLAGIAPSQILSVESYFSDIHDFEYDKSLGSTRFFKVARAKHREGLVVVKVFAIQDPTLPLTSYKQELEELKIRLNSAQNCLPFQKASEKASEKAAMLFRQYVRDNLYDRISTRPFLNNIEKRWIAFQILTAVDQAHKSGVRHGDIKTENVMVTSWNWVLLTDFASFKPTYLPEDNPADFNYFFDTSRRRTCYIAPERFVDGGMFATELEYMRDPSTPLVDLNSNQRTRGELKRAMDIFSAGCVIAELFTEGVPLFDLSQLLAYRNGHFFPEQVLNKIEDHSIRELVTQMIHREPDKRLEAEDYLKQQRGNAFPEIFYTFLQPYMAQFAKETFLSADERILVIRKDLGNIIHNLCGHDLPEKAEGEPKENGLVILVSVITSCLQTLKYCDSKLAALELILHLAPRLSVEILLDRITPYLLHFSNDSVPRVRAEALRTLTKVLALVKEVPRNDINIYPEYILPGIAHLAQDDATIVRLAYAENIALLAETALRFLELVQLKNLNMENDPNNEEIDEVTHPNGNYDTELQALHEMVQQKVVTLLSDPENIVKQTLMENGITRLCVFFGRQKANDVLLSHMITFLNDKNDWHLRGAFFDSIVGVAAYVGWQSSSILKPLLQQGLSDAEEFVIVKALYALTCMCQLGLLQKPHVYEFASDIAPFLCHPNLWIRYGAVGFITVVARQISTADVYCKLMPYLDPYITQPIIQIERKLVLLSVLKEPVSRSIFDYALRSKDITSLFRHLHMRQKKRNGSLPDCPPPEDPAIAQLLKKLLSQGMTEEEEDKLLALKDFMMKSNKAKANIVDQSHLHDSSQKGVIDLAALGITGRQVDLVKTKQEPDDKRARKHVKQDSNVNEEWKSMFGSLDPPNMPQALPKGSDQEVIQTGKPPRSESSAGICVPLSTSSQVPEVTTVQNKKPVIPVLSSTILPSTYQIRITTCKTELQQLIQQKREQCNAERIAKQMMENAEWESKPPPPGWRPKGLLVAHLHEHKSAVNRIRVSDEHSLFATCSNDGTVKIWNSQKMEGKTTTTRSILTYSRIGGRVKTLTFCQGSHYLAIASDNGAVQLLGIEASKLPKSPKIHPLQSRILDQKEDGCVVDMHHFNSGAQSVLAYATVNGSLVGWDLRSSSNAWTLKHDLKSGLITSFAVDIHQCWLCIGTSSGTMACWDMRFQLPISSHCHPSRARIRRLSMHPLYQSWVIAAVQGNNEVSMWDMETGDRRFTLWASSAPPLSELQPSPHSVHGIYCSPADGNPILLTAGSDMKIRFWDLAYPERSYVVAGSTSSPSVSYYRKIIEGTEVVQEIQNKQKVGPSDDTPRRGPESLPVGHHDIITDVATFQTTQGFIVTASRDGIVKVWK
Sequence (Q9P2Y5 whole entry partner): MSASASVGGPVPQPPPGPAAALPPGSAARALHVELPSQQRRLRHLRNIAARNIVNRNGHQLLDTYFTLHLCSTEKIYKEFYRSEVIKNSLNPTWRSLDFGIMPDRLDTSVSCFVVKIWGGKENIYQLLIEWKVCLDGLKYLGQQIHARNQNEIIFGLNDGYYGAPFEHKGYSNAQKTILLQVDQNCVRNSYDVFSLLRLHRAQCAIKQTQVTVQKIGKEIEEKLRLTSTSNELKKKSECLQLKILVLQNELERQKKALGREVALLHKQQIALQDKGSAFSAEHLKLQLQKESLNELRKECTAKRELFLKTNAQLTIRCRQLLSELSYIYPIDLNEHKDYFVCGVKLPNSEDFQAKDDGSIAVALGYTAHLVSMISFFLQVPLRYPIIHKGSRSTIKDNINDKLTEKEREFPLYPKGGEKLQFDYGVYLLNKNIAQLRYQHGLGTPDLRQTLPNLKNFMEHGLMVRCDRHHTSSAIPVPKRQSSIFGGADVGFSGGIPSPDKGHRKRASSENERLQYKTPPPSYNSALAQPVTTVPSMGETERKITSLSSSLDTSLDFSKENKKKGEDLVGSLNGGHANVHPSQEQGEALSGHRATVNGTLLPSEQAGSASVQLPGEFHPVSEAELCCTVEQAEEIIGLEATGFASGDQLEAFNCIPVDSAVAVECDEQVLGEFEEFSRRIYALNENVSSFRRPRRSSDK
Experiment: biochemical
Design: Lipid kinase activity assay on purified class I PI3K or VPS34 complex II, 10 uM ATP
Settings: read-out: PITCOIN3 (IC50)
observation-type: IC50

| compound-string | target-of-assay | endpoint-result |
| --- | --- | --- |
| CS(=O)(=O)Nc1cccc(-c2csc(NC(=O)CSc3nc4nccnc4c(=O)n3CCc3ccccc3)n2)c1 | VPS34 complex II (Homo sapiens, UniProt Q8NEB9) | > 10 µM |

====

Target: VPS34 complex II (Homo sapiens, UniProt Q8NEB9)
Construct: gene PIK3C3
Experiment: biochemical
Design: Lipid kinase activity assay on purified class I PI3K or VPS34 complex II, 10 uM ATP
Details: read-out: PITCOIN2 (IC50)
pIC50: −log10 of the molar value.

| compound | pIC50 |
| --- | --- |
| O=C(CSc1nc2nccnc2c(=O)n1CCc1ccccc1)Nc1nc(-c2cccc(O)c2)cs1 [compound 2, PITCOIN2] | < 5.00 |

====

Biological target: PI3KC2γ (Homo sapiens, UniProt O75747)
Construct: gene PIK3C2G
Sequence (O75747 whole entry): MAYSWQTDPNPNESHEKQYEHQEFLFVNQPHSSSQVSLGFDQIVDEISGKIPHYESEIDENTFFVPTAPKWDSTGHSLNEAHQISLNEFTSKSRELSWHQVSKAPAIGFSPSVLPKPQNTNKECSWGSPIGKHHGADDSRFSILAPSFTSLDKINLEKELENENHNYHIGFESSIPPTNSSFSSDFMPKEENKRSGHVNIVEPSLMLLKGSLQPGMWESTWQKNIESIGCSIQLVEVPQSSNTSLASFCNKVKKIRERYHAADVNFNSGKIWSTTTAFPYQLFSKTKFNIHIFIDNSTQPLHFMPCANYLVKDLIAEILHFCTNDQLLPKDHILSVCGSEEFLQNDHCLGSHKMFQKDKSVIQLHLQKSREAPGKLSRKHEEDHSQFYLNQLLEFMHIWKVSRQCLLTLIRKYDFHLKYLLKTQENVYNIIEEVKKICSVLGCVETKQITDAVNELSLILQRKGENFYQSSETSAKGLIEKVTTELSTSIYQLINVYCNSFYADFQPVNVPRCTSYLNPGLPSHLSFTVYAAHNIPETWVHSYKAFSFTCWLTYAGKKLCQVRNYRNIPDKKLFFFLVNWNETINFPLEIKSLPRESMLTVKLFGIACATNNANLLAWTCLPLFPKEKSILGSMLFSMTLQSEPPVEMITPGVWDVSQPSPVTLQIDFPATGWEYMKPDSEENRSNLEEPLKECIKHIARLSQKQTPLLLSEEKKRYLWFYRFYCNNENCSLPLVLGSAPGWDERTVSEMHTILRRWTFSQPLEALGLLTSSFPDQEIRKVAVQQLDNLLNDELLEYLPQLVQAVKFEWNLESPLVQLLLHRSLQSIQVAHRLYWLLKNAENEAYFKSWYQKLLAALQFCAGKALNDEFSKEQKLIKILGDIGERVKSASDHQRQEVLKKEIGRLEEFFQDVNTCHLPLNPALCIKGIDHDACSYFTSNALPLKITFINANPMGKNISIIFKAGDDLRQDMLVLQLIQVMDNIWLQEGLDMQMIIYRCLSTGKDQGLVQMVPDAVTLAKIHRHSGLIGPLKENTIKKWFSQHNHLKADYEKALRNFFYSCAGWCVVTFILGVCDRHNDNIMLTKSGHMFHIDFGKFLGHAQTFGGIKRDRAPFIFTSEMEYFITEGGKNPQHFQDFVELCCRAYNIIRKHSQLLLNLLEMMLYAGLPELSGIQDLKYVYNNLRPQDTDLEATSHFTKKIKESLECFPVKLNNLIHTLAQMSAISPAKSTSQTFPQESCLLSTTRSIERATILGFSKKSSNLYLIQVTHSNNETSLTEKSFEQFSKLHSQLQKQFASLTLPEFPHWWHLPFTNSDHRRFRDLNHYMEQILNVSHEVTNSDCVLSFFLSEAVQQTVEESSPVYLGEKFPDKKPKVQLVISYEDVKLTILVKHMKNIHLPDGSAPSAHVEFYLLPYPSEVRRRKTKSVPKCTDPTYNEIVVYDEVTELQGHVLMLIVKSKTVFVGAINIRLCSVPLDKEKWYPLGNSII
Test: biochemical
Parameters: ADP-Glo lipid kinase assay with liver PI substrate, luminescence
Details: read-out: PITCOIN3 (IC50)

| compound-string | IC50 |
| --- | --- |
| CS(=O)(=O)Nc1cccc(-c2csc(NC(=O)CSc3nc4nccnc4c(=O)n3CCc3ccccc3)n2)c1 | > 10 µM |

====

Biological target: VPS34 complex II (Homo sapiens, UniProt Q8NEB9)
Construct: gene PIK3C3
Test: biochemical
Design: Lipid kinase activity assay on purified class I PI3K or VPS34 complex II, 10 uM ATP
Details: read-out: PITCOIN1 (IC50)
pIC50: −log10 of the molar value.
observation-type: pIC50

| compound-string | endpoint-result |
| --- | --- |
| O=C(CSc1nc2nccnc2c(=O)n1CCc1ccccc1)Nc1nccs1 | < 5.00 |
